Items are presented alongside their recorded pIC50.
Molecular target: resting GPIIb/IIIa (Homo sapiens, UniProt P05106+P08514)
Construct: Platelet rich plasma (PRP) was prepared by centrifugation of whole blood; endogenous in cells
Sequence (P08514 32-887 limits assumed): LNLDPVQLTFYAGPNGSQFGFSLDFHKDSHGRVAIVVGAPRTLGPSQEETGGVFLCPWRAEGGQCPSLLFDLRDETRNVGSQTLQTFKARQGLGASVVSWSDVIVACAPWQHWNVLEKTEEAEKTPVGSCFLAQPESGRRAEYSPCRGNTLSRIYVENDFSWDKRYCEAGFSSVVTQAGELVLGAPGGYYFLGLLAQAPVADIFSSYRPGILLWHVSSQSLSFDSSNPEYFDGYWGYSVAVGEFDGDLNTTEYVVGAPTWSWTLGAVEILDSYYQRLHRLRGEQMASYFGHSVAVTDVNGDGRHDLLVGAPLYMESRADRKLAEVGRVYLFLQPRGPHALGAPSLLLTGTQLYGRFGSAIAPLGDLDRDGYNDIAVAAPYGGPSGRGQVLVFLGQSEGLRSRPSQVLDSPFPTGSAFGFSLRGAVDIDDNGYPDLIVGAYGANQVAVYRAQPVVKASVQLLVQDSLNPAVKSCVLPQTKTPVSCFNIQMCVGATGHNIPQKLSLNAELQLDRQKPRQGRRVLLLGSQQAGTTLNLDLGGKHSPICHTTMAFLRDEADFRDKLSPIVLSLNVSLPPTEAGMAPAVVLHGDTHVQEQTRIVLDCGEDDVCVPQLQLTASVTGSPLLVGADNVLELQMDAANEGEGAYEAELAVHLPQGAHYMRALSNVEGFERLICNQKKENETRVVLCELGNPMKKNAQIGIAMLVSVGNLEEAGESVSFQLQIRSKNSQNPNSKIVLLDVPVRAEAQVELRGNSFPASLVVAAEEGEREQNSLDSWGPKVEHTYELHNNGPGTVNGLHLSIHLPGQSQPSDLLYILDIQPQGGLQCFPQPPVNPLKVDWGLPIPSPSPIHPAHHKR
Sequence (P08514 891-1039 partner limits assumed): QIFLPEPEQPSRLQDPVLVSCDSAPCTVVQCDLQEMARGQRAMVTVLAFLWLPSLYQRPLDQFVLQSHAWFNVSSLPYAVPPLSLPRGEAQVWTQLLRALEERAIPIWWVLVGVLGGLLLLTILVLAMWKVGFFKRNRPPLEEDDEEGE
Sequence (P05106 27-788): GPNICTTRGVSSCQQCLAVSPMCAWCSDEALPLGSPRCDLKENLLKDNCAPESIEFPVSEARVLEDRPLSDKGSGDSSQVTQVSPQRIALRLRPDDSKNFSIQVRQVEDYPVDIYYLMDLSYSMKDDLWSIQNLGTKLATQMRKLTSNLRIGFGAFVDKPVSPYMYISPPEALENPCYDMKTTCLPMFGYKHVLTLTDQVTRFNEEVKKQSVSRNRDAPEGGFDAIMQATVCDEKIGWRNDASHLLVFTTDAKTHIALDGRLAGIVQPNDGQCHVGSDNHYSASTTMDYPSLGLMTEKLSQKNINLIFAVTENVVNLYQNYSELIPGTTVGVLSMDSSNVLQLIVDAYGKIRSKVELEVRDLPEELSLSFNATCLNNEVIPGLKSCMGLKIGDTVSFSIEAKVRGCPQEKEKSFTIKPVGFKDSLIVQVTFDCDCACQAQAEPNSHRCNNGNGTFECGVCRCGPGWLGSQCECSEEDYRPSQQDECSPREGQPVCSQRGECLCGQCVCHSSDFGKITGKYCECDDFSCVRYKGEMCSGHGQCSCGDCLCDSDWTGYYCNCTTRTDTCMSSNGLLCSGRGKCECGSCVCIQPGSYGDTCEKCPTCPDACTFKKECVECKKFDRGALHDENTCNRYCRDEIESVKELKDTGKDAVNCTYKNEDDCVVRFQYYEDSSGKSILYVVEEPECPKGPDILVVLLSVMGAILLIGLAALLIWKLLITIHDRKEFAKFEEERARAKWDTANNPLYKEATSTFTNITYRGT
Assay: Test 2: suppression activity of fibrinogen adhesion of prostaglandin E1 (PGE1)-treated platelet
Settings: washed PGE1 (1 μM)-treated platelets, plates coated with human fibrinogen 1 μg/well, 37° C. 30 min; read-out: R Suppression of fibrinogen adhesion IC50
pIC50: −log10 of the molar value.
parameter: pIC50

{"compound": "CN(CC(=O)c1ccc(OCC(=O)O)c(OCCF)c1)C(=O)/C=C/C1CCNCC1", "parameter": "pIC50", "test value": 5.21}
{"compound": "COc1ccc(CCC(=O)N[C@H](CNC(=O)[C@@H]2CCCN(C(=O)CCC3CCNCC3)C2)C(=O)O)cc1", "parameter": "pIC50", "test value": 6.27}
{"compound": "CC(C)CCC(=O)Nc1cccc(C(=O)N[C@@H](CNC(=O)[C@H]2CCCN(C(=O)CCC3CCNCC3)C2)C(=O)O)c1", "parameter": "pIC50", "test value": 6.82}
{"compound": "CC(C)[C@H](NC(=O)[C@H](CC(=O)O)NC(=O)CCCOc1ccc(C(=N)N)cc1)C(=O)O [Reference Ex. 4, FK633, reference compound]", "parameter": "pIC50", "test value": 5.88}
